# EXPERIMENT: Surface tension by pendant drop method, water/air interface
# Format: physicochemical
# STUDY CONDITIONS: concentration 1.00 wt %
READOUT KIND: Water/air interface (surface tension) (mN/m)

>  <COMPOUND>
CCCc1cc(OC)c(O)c(OC)c1

>  <RESULT VALUE>
32.3

$$$$
>  <COMPOUND>
CCCc1cc(OC)c([O-])c(OC)c1.[Na+] [PSNa, 4-propylsyringol sodium salt]

>  <RESULT VALUE>
33.8

$$$$

---

# EXPERIMENT: Surface tension by pendant drop method, water/air interface
# Assay type: physicochemical
# STUDY CONDITIONS: concentration 0.10 wt %
READOUT KIND: Water/air interface (surface tension) (mN/m)

>  <COMPOUND>
CCCc1cc(OC)c(O)c(OC)c1

>  <UNIT STRING>
mN/m

>  <RESULT VALUE>
48.3

$$$$
>  <COMPOUND>
CCCc1cc(OC)c([O-])c(OC)c1.[Na+] [PSNa, 4-propylsyringol sodium salt]

>  <UNIT STRING>
mN/m

>  <RESULT VALUE>
45.1

$$$$
